Procedure text: self-splicing fitness, log relative to wild type (ln ratio); higher = more splicing; Tetrahymena group I intron in knt gene, E. coli kanamycin selection, DiMSum; sequences stand for … in CUCUCU…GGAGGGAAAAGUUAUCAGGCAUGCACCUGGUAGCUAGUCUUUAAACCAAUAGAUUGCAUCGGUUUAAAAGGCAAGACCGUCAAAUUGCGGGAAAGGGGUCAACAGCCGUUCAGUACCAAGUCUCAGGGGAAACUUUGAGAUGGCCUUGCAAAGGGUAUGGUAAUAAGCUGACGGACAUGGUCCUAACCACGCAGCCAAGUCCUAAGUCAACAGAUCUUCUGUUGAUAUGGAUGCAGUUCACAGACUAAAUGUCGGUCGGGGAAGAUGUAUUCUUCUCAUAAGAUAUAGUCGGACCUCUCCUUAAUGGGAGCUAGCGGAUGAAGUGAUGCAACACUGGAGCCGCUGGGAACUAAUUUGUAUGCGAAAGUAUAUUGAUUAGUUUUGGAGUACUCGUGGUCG;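 note: selection with 25 µg/mL kanamycin versus none on LB agar overnight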
Study conditions: 37 °C

{"Chain": "GCAUAGCAAUAUUACGUCUA", "self-splicing fitness (ln)": -0.993}
{"Chain": "ACCCAGCAAUAUUACGGGCA", "self-splicing fitness (ln)": -0.0091}
{"Chain": "UUGCAGCAAUAUUACGGUAU", "self-splicing fitness (ln)": -1.63}
{"Chain": "CUUAAGCAAUAUUACGGGUU", "self-splicing fitness (ln)": -3.2}
{"Chain": "UUUAAGCAAUAUUACGGUAG", "self-splicing fitness (ln)": -0.971}
{"Chain": "UGGAAGCAAUAUUACGUUAA", "self-splicing fitness (ln)": -0.67}
{"Chain": "GCAAAGCAAUAUUACGAGGU", "self-splicing fitness (ln)": -3.24}
{"Chain": "AUAUAGCAAUAUUACGUGAG", "self-splicing fitness (ln)": -0.565}
{"Chain": "CGUUAGCAAUAUUACGCGGC", "self-splicing fitness (ln)": -2.19}
{"Chain": "AAAAAGCAAUAUUACGACUA", "self-splicing fitness (ln)": 0.028}
{"Chain": "CGUAAGCAAUAUUACGUCGU", "self-splicing fitness (ln)": -1.63}
{"Chain": "GGUAAGCAAUAUUACGAUUU", "self-splicing fitness (ln)": -0.0101}
{"Chain": "CGUUAGCAAUAUUACGCGGU", "self-splicing fitness (ln)": -3.35}
{"Chain": "GUGAAGCAAUAUUACGAGAG", "self-splicing fitness (ln)": -1.7}
{"Chain": "ACCCAGCAAUAUUACGUACC", "self-splicing fitness (ln)": -1.63}
{"Chain": "UCAUAGCAAUAUUACGUUAC", "self-splicing fitness (ln)": -3.01}
{"Chain": "GCCGAGCAAUAUUACGAUGC", "self-splicing fitness (ln)": -0.352}
{"Chain": "UACUAGCAAUAUUACGGCGU", "self-splicing fitness (ln)": -0.707}
{"Chain": "CACAAGCAAUAUUACGGCAU", "self-splicing fitness (ln)": -2.33}

Attribution: the supplement of paper PMC7877785
